Ref: PubChem BioAssay AID1963959

System: T-47D spheroids with HUVEC/MSC, viability
Assay: Anticancer human tumor T-47D cell line growth inhibition [PI3K];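 also: spheroids exposed to agents for seven days before reading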;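 as to viability, T/C: percent of DMSO vehicle control luminescence so 100% = untreated growth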
Settings: second compound 1 µM; first compound 0.1 µM; stronger effect = lower value
Source text: Combinatorial screen of targeted agents with the PI3K inhibitors inavolisib, alpelisib, duvelisib, and copanlisib in multi-cell type tumor spheroids A high-throughput screen of multi-cell type tumor spheroids was designed to identify active combinations of targeted small molecules and PI3K pathway inhibitors. […] Compounds. […] If the clinical Cmax for an agent had not been determined, the highest concentration tested was 10 microM. […]
Quick reference for viability, T/C among some compounds

compound	viability, T/C
CC1(C)CCC(Nc2ncc(C(F)(F)F)c(-c3c[nH]c4c(P(C)(C)=O)c(C#N)ccc34)n2)CN1 (stereo unspecified) + Cc1nc(NC(=O)N2CCCC2C(N)=O)sc1-c1ccnc(C(C)(C)C(F)(F)F)c1	58.1%

**Query** Name the reported viability, T/C value associated with the compound CC(C)NCC(C(=O)N1CCN(c2ncnc3c2C(C)CC3O)CC1)c1ccc(Cl)cc1 (stereo unspecified) + CC(Nc1ncnc2nc[nH]c12)c1cc2cccc(Cl)c2c(=O)n1-c1ccccc1
**Result** 104%

**Query** Suppose we examine the compound CC1(C)CCC(CN2CCN(c3ccc(C(=O)NS(=O)(=O)c4ccc(NCC5CCOCC5)c([N+](=O)[O-])c4)c(Oc4cnc5[nH]ccc5c4)c3)CC2)=C(c2ccc(Cl)cc2)C1 + CC(Nc1ccc2c(c1)OCCn1cc(N3C(=O)OCC3C(F)F)nc1-2)C(N)=O ; what viability, T/C value has been reported?
**Result** 54.5%

**Query** Could you share which viability, T/C value was measured for Cn1ncnc1[C@H]1c2n[nH]c(=O)c3cc(F)cc(c23)N[C@@H]1c1ccc(F)cc1 + Cc1nc(NC(=O)N2CCCC2C(N)=O)sc1-c1ccnc(C(C)(C)C(F)(F)F)c1 ?
**Result** 90.5%

**Query** # query: viability, T/C of entry C[C@@H](NC(=O)c1ncnc(N)c1Cl)c1ncc(C(=O)Nc2cc(C(F)(F)F)c(Cl)cn2)s1 + COc1c(OCCCN2CCOCC2)ccc2c3n(c(=NC(=O)c4cnc(N)nc4)nc12)CCN3
**Result** 8.23%

**Query** So what does the record say about viability, T/C for CNC(=O)c1ccc(N2C(=S)N(c3ccc(C#N)c(C(F)(F)F)c3)C(=O)C2(C)C)cc1F + COc1c(OCCCN2CCOCC2)ccc2c3n(c(=NC(=O)c4cnc(N)nc4)nc12)CCN3 ?
**Result** 6.91%

**Query** Look up viability, T/C for this compound: CC(C)n1nc(-c2ccc3oc(N)nc3c2)c2c(N)ncnc21 + CC(Nc1ncnc2nc[nH]c12)c1cc2cccc(Cl)c2c(=O)n1-c1ccccc1
**Result** 36.6%

**Query** For the compound CCCS(=O)(=O)Nc1ccc(F)c(C(=O)c2c[nH]c3ncc(-c4ccc(Cl)cc4)cc23)c1F + Cc1nc(NC(=O)N2CCCC2C(N)=O)sc1-c1ccnc(C(C)(C)C(F)(F)F)c1 , what viability, T/C is on record?
**Result** 82.3%

**Query** // viability, T/C lookup, key: Cn1ncc(Cl)c1-c1cc(C(=O)NC(CN)Cc2cccc(F)c2)sc1Cl (stereo unspecified) + CC(Nc1ccc2c(c1)OCCn1cc(N3C(=O)OCC3C(F)F)nc1-2)C(N)=O
**Result** 49.5%

**Query** Query (compound): Cn1ncc(Cl)c1-c1cc(C(=O)NC(CN)Cc2cccc(F)c2)sc1Cl (stereo unspecified) + Cc1nc(NC(=O)N2CCCC2C(N)=O)sc1-c1ccnc(C(C)(C)C(F)(F)F)c1 ; field requested: viability, T/C
**Result** 75.9%

**Query** Which measured viability, T/C value corresponds to CCN1CCN(Cc2ccc(Nc3ncc(F)c(-c4cc(F)c5nc(C)n(C(C)C)c5c4)n3)nc2)CC1 + CC(Nc1ccc2c(c1)OCCn1cc(N3C(=O)OCC3C(F)F)nc1-2)C(N)=O ?
**Result** 32.5%

====

Test system: T-47D spheroids with HUVEC/MSC, viability
Assay: Anticancer human tumor T-47D cell line growth inhibition [PI3K];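 also: spheroids exposed to agents for seven days before reading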
Details: curve of first compound; second compound 10 µM
compounds and their reported IC50

Known IC50 results, listed for orientation:
compound	measure	observed
C[C@@H](NC(=O)c1ncnc(N)c1Cl)c1ncc(C(=O)Nc2cc(C(F)(F)F)c(Cl)cn2)s1 + Cc1nc(NC(=O)N2CCCC2C(N)=O)sc1-c1ccnc(C(C)(C)C(F)(F)F)c1	IC50	< 31.6 nM
CCCS(=O)(=O)Nc1ccc(F)c(C(=O)c2c[nH]c3ncc(-c4ccc(Cl)cc4)cc23)c1F + Cc1nc(NC(=O)N2CCCC2C(N)=O)sc1-c1ccnc(C(C)(C)C(F)(F)F)c1	IC50	< 31.6 nM

**Query** Quick one: IC50 of C=CC(=O)N1CCN(c2nc(=O)n(-c3c(C)ccnc3C(C)C)c3nc(-c4c(O)cccc4F)c(F)cc23)C(C)C1 (stereo not drawn) + Cc1nc(NC(=O)N2CCCC2C(N)=O)sc1-c1ccnc(C(C)(C)C(F)(F)F)c1 ?
**Result** < 31.6 nM

====

Test system: T-47D spheroids with HUVEC/MSC, viability
Assay: Anticancer human tumor T-47D cell line growth inhibition [PI3K];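 also: spheroids exposed to agents for seven days before reading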
Details: curve of first compound; second compound 0.1 µM
Excerpt: Combinatorial screen of targeted agents with the PI3K inhibitors inavolisib, alpelisib, duvelisib, and copanlisib in multi-cell type tumor spheroids A high-throughput screen of multi-cell type tumor spheroids was designed to identify active combinations of targeted small molecules and PI3K pathway inhibitors. […] Compounds. […] If the clinical Cmax for an agent had not been determined, the highest concentration tested was 10 microM. […]
pIC50: −log10 of the molar value.
measure: pIC50

Solved entries (count: 5):
compound	target-desc	measure	observed
Cn1nccc1Nc1nccc(-c2ccn(C(CO)c3ccc(Cl)c(F)c3)c(=O)c2)n1 (stereo not given) + Cc1nc(NC(=O)N2CCCC2C(N)=O)sc1-c1ccnc(C(C)(C)C(F)(F)F)c1	T-47D spheroids with HUVEC/MSC, viability	pIC50	< 5.00
C#Cc1c(F)ccc2cc(O)cc(-c3ncc4c(N5CC6CCC(C5)N6)nc(OCC56CCCN5CC(F)C6)nc4c3F)c12 (stereo not given) + CC(Nc1ncnc2nc[nH]c12)c1cc2cccc(Cl)c2c(=O)n1-c1ccccc1	T-47D spheroids with HUVEC/MSC, viability	pIC50	< 5.00
C[C@@H](NC(=O)c1ncnc(N)c1Cl)c1ncc(C(=O)Nc2cc(C(F)(F)F)c(Cl)cn2)s1 + CC(Nc1ncnc2nc[nH]c12)c1cc2cccc(Cl)c2c(=O)n1-c1ccccc1	T-47D spheroids with HUVEC/MSC, viability	pIC50	< 5.00
C#Cc1c(F)ccc2cc(O)cc(-c3ncc4c(N5CC6CCC(C5)N6)nc(OCC56CCCN5CC(F)C6)nc4c3F)c12 (stereo not given) + Cc1nc(NC(=O)N2CCCC2C(N)=O)sc1-c1ccnc(C(C)(C)C(F)(F)F)c1	T-47D spheroids with HUVEC/MSC, viability	pIC50	< 5.00
CC1(C)CCC(CN2CCN(c3ccc(C(=O)NS(=O)(=O)c4ccc(NCC5CCOCC5)c([N+](=O)[O-])c4)c(Oc4cnc5[nH]ccc5c4)c3)CC2)=C(c2ccc(Cl)cc2)C1 + COc1c(OCCCN2CCOCC2)ccc2c3n(c(=NC(=O)c4cnc(N)nc4)nc12)CCN3	T-47D spheroids with HUVEC/MSC, viability	pIC50	> 7.50

**Query** Please give the measured pIC50 for this compound: CCCS(=O)(=O)Nc1ccc(F)c(C(=O)c2c[nH]c3ncc(-c4ccc(Cl)cc4)cc23)c1F + CC(Nc1ncnc2nc[nH]c12)c1cc2cccc(Cl)c2c(=O)n1-c1ccccc1
**Result** < 5.00

**Query** For the compound C=CC(=O)N1CCN(c2nc(=O)n(-c3c(C)ccnc3C(C)C)c3nc(-c4c(O)cccc4F)c(F)cc23)C(C)C1 (stereo not given) + Cc1nc(NC(=O)N2CCCC2C(N)=O)sc1-c1ccnc(C(C)(C)C(F)(F)F)c1 , what pIC50 is on record?
**Result** < 5.00

**Query** What measured pIC50 goes with C[C@@H](NC(=O)c1ncnc(N)c1Cl)c1ncc(C(=O)Nc2cc(C(F)(F)F)c(Cl)cn2)s1 + CC(Nc1ccc2c(c1)OCCn1cc(N3C(=O)OCC3C(F)F)nc1-2)C(N)=O ?
**Result** < 5.00

**Query** Need pIC50, item CC(C)n1nc(-c2ccc3oc(N)nc3c2)c2c(N)ncnc21 + COc1c(OCCCN2CCOCC2)ccc2c3n(c(=NC(=O)c4cnc(N)nc4)nc12)CCN3
**Result** > 9.50

====

System: T-47D spheroids with HUVEC/MSC, viability
Experiment: Anticancer human tumor T-47D cell line growth inhibition [PI3K];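 also: spheroids exposed to agents for seven days before reading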;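 as to viability, T/C: percent of DMSO vehicle control luminescence so 100% = untreated growth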
Settings: second compound 0.0316 µM; first compound 0.0316 µM; stronger effect = lower value
measure: viability, T/C (%)
Write the number in % without appending the unit.

compound	measure-unit	observed
C#Cc1c(F)ccc2cc(O)cc(-c3ncc4c(N5CC6CCC(C5)N6)nc(OCC56CCCN5CC(F)C6)nc4c3F)c12 (centres undefined) + COc1c(OCCCN2CCOCC2)ccc2c3n(c(=NC(=O)c4cnc(N)nc4)nc12)CCN3	%	80.5
CC(C)NCC(C(=O)N1CCN(c2ncnc3c2C(C)CC3O)CC1)c1ccc(Cl)cc1 (centres undefined) + COc1c(OCCCN2CCOCC2)ccc2c3n(c(=NC(=O)c4cnc(N)nc4)nc12)CCN3	%	69.8
CC(Cn1ccc(-c2ccc(C#N)c(Cl)c2)n1)NC(=O)c1cc(C(C)O)[nH]n1 (centres undefined) + COc1c(OCCCN2CCOCC2)ccc2c3n(c(=NC(=O)c4cnc(N)nc4)nc12)CCN3	%	69.2
Cn1ncnc1[C@H]1c2n[nH]c(=O)c3cc(F)cc(c23)N[C@@H]1c1ccc(F)cc1 + CC(Nc1ccc2c(c1)OCCn1cc(N3C(=O)OCC3C(F)F)nc1-2)C(N)=O	%	81.2
CCCS(=O)(=O)Nc1ccc(F)c(C(=O)c2c[nH]c3ncc(-c4ccc(Cl)cc4)cc23)c1F + CC(Nc1ncnc2nc[nH]c12)c1cc2cccc(Cl)c2c(=O)n1-c1ccccc1	%	114
CC1(C)CCC(CN2CCN(c3ccc(C(=O)NS(=O)(=O)c4ccc(NCC5CCOCC5)c([N+](=O)[O-])c4)c(Oc4cnc5[nH]ccc5c4)c3)CC2)=C(c2ccc(Cl)cc2)C1 + Cc1nc(NC(=O)N2CCCC2C(N)=O)sc1-c1ccnc(C(C)(C)C(F)(F)F)c1	%	106
CC(C)NCC(C(=O)N1CCN(c2ncnc3c2C(C)CC3O)CC1)c1ccc(Cl)cc1 (centres undefined) + CC(Nc1ccc2c(c1)OCCn1cc(N3C(=O)OCC3C(F)F)nc1-2)C(N)=O	%	102
Cn1ncnc1[C@H]1c2n[nH]c(=O)c3cc(F)cc(c23)N[C@@H]1c1ccc(F)cc1 + Cc1nc(NC(=O)N2CCCC2C(N)=O)sc1-c1ccnc(C(C)(C)C(F)(F)F)c1	%	86.8

**Query** For the record CC(C)n1nc(-c2ccc3oc(N)nc3c2)c2c(N)ncnc21 + Cc1nc(NC(=O)N2CCCC2C(N)=O)sc1-c1ccnc(C(C)(C)C(F)(F)F)c1 , what value of viability, T/C is listed for T-47D spheroids with HUVEC/MSC, viability?
**Result** 78.8

**Query** // lookup viability, T/C | system=T-47D spheroids with HUVEC/MSC, viability | key= C#Cc1c(F)ccc2cc(O)cc(-c3ncc4c(N5CC6CCC(C5)N6)nc(OCC56CCCN5CC(F)C6)nc4c3F)c12 (centres undefined) + CC(Nc1ncnc2nc[nH]c12)c1cc2cccc(Cl)c2c(=O)n1-c1ccccc1
**Result** 101

**Query** # query: viability, T/C | item C[C@@H](NC(=O)c1ncnc(N)c1Cl)c1ncc(C(=O)Nc2cc(C(F)(F)F)c(Cl)cn2)s1 + CC(Nc1ncnc2nc[nH]c12)c1cc2cccc(Cl)c2c(=O)n1-c1ccccc1 | system: T-47D spheroids with HUVEC/MSC, viability
**Result** 75.3

**Query** Recall the recorded viability, T/C for Cn1nccc1Nc1nccc(-c2ccn(C(CO)c3ccc(Cl)c(F)c3)c(=O)c2)n1 (centres undefined) + COc1c(OCCCN2CCOCC2)ccc2c3n(c(=NC(=O)c4cnc(N)nc4)nc12)CCN3 with T-47D spheroids with HUVEC/MSC, viability and state it.
**Result** 70

**Query** # query: viability, T/C | item Cn1ncnc1[C@H]1c2n[nH]c(=O)c3cc(F)cc(c23)N[C@@H]1c1ccc(F)cc1 + COc1c(OCCCN2CCOCC2)ccc2c3n(c(=NC(=O)c4cnc(N)nc4)nc12)CCN3 | system: T-47D spheroids with HUVEC/MSC, viability
**Result** 75.1

**Query** // lookup viability, T/C | system=T-47D spheroids with HUVEC/MSC, viability | key= CC1(C)CCC(CN2CCN(c3ccc(C(=O)NS(=O)(=O)c4ccc(NCC5CCOCC5)c([N+](=O)[O-])c4)c(Oc4cnc5[nH]ccc5c4)c3)CC2)=C(c2ccc(Cl)cc2)C1 + COc1c(OCCCN2CCOCC2)ccc2c3n(c(=NC(=O)c4cnc(N)nc4)nc12)CCN3
**Result** 73
